Reported pKd values follow for various binders
# system: T1, PUF4 RNA-binding domain (Saccharomyces cerevisiae, UniProt P25339 537-888)
# T1 sequence: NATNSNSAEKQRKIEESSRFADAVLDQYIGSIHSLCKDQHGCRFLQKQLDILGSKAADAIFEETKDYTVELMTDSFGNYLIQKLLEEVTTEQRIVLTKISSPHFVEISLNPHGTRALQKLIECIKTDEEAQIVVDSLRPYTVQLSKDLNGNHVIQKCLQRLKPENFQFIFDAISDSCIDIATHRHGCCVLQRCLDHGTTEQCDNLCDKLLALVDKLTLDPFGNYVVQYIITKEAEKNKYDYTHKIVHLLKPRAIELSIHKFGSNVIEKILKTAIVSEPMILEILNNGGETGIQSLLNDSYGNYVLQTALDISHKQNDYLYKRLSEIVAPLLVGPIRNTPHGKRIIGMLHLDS
# test method notes: Mg; RNA-MaP; 20 mM Na-HEPES pH 7.4, 30 mM KOAc, 0.75 mM MgCl2, 0.1% Tween-20, 5% glycerol, 0.1 mg/mL BSA, 2 mM DTT; 25 C; 0.0125-409.6 nM protein
# condition: tags: N-His6-TEV cleaved; C-SNAP kept, Cy3B-labelled; label: tethered on chip by stalled RNA polymerase
pKd: −log10 of the molar value.

- binder: "Id_ii_S2_P4E.4_K4.3_C4.2_[C-2T]_H4.3_A4.1_F4.1_T4.2_[G10A]_[T11A] (ssRNA) RNA: UUUGAUUAAUAUGAUAUCGUUCUUUCUUUACACUAUUAAAUUCUUUCUCGAUAUCAUAUUAAUCUUU"
  pKd: 6.09
- binder: "UCUCUUCCCCUUUUGUAUAUAUAUCUCUU (ssRNA) [Ie_S1_P3E.2_K3.1_C3.2_[+-2CCCTT]_H3.1_A3.1_F3.1_T3.2]"
  pKd: 8.23
- binder: "Ib_S2_P5E.1_K5.1_C5.1_H5.1_A5.1_[A7T]_F5.1_[A10C]_T5.1 (ssRNA) RNA: UUUGAUUAAUAUGAUAUCGUUCUUUCUUGUAUUUUUCUUCUUUCUCGAUAUCAUAUUAAUCUUU"
  pKd: 7.89
